Data origin: PubChem BioAssay (NCATS)

protocol notes: qHTS Assay for Identifying Gametocytocidal Compounds (AID 743244);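 further: on the % scale 0 is the no-effect control and ±100 the full control effect; actives lower the fluorescent signal which means gametocytes are killed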
test parameters: P. falciparum 3D7 stage III-V gametocytes, alamarBlue, 72 h; active compounds read low
Inconclusive results are not listed.
parameter measured: max response (%)
Write the value in % as a bare number.

If you can, please state the reported max response value of COC(=O)CCC[N+](C)(C)C .
-8.11

If you can, please state the reported max response value of Nc1nc(NC2CC2)c2ncn([C@@H]3C=C[C@@H](CO)C3)c2n1 .
15.8

Next:
If you can, please state the reported max response value of O=C(O)c1ccc(NC2OC[C@@H](O)[C@H](O)[C@H]2O)cc1 (some centres not stated) .
-2.1

If you can, please state the reported max response value of CN1C(C(=O)Nc2ccccn2)C(=O)c2sc(Cl)cc2S1(=O)=O (configuration not stated) .
11.6

If you can, please state the reported max response value of CC(=O)Nc1c(I)c(C(=O)O)c(I)c(N(C)C(C)=O)c1I .
-0.708

If you can, please state the reported max response value of CO/N=C(\C(=O)N[C@@H]1C(=O)N2C(C(=O)O)=C(C[N+]3(C)CCCC3)CS[C@H]12)c1csc(N)n1 .
15.9

If you can, please state the reported max response value of C=CC[N@@+]12CC[C@@]34c5ccccc5N5/C=C6/[C@H]7C[C@H]8[C@@]9(CC[N@@+]8(CC=C)C/C7=C/CO)c7ccccc7N(/C=C(/[C@@H](C[C@@H]31)/C(=C\CO)C2)[C@H]54)[C@@H]69 .
4.55

If you can, please state the reported max response value of NC(=O)Oc1ccc(Cc2ccccc2)cc1 .
-7.34

If you can, please state the reported max response value of CC(=O)Nc1ccc(OC(C)=O)cc1 .
-5.2

###

protocol notes: Drug repurposing screens with cells derived from glioblastoma tumor samples (AID 1345199); further: on the % scale 0 is the no-effect control and ±100 the full control effect; nearly all actives have a fitted effect of over 40% in size
test parameters: GBM patient neurospheres viability, ATP luminescence, 48 h; at 45.9 µM (top of the series); tumour line D
Records with an inconclusive call do not appear.
parameter measured: activity, negative = cell killing (%)
Write the value in % as a bare number.

If you can, please state the reported activity, negative = cell killing value of C[C@@H]1NC(=O)[C@@H](N)CNC(=O)[C@H](C2CCNC(N)=N2)NC(=O)/C(=C/NC(N)=O)NC(=O)[C@H](CNC(=O)C[C@@H](N)CCCN)NC1=O (some centres not stated) .
-1.47

###

protocol notes: Drug repurposing screens with cells derived from glioblastoma tumor samples (AID 1345199); further: on the % scale 0 is the no-effect control and ±100 the full control effect; nearly all actives have a fitted effect of over 40% in size
test parameters: GBM patient neurospheres viability, ATP luminescence, 48 h; at 46.1 µM (top of the series); tumour line C
Method: CD133+ cells were isolated from GBM patient biopsies and cultured as neurospheres. Neurospheres from four patients were used to screen the NCATS pharmaceutical collection (NPC) library of approved drugs and bioactive compounds. […] The neurospheres were incubated with drugs for 48 hours in 1536-well format, then assayed with an ATP content cell viability assay. […]
Results filed as inconclusive are left out.
parameter measured: activity, negative = cell killing (%)
Write the value in % as a bare number.

If you can, please state the reported activity, negative = cell killing value of CCOc1ccc(S(=O)(=O)O)c2cccnc12 .
-26.7

If you can, please state the reported activity, negative = cell killing value of Cc1c(N)nc([C@H](CC(N)=O)NC[C@H](N)C(N)=O)nc1C(=O)N[C@H](C(=O)N[C@H](C)[C@@H](O)[C@H](C)C(=O)N[C@H](C(=O)NCCc1nc(-c2nc(C(=O)NCCCCN=C(N)N)cs2)cs1)[C@@H](C)O)[C@@H](O[C@@H]1O[C@@H](CO)[C@@H](O)[C@H](O)[C@@H]1O[C@H]1O[C@H](CO)[C@@H](O)[C@H](OC(N)=O)[C@@H]1O)c1cnc[nH]1 .
-15.4

Next:
If you can, please state the reported activity, negative = cell killing value of CC1(C)[C@H]2CC[C@]1(C)[C@H](O)C2 .
-20.6

###

Test system: CP250
protocol notes: qHTS profiling for inhibitors of Plasmodium falciparum proliferation (AID 504749);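 further: 0% = DMSO vehicle and full inhibition = artemisinin control; nearly all actives have a fitted effect of over 60% in size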
test parameters: P. falciparum in erythrocytes, SYBR Green DNA, 72 h; series mostly up to 28.7 µM
Results filed as inconclusive are left out. Active and inactive are the calls of the source. Calls follow the shape of the dose curve; as a rule, active = well fitted inhibition curve with a large enough effect; inconclusive = small, poorly fitted or top-dose-only effect; inactive = flat fitted curve, though single readings scatter.
Entry note: the call must match one of 1.0 (active), 0.0 (inactive)

What call does the record list for C/C=C/C=C/C(=O)O ?
0.0

What call does the record list for CCCCC/C=C\C/C=C\C/C=C\CCCCC(=O)O ?
0.0

What call does the record list for CC(CNC(=O)c1cccnc1)NC(=O)c1cccnc1 (configuration not stated) ?
0.0

What call does the record list for OC[C@H]1O[C@@H]2O[C@H]3[C@H](O)[C@@H](O)[C@@H](O[C@H]4[C@H](O)[C@@H](O)[C@@H](O[C@H]5[C@H](O)[C@@H](O)[C@@H](O[C@H]6[C@H](O)[C@@H](O)[C@@H](O[C@H]7[C@H](O)[C@@H](O)[C@@H](O[C@H]1[C@H](O)[C@H]2O)O[C@@H]7CO)O[C@@H]6CO)O[C@@H]5CO)O[C@@H]4CO)O[C@@H]3CO ?
0.0

What call does the record list for CC(=O)[O][Al][O]C(C)=O ?
0.0

Next:
What call does the record list for Oc1ccc(Cl)c2c1CCC2 ?
0.0

What call does the record list for c1ccc2c(c1)OCC(CN1CCCCC1)O2 (configuration not stated) ?
0.0

What call does the record list for S=C1SCN(Cc2ccccc2)CN1Cc1ccccc1 ?
0.0

What call does the record list for S=C=Nc1ccc(N=C=S)cc1 ?
0.0

What call does the record list for CC(C)CCC[C@@H](C)[C@H]1CC[C@H]2[C@@H]3CC[C@@H]4C[C@H](O)CC[C@]4(C)[C@H]3CC[C@]12C ?
0.0

What call does the record list for CS(=O)(=O)c1ccc([C@@H](O)[C@@H](COC(=O)CN)NC(=O)C(Cl)Cl)cc1 ?
0.0

###

Reported activity, negative = inhibition values are given for each entry in this list.
protocol notes: qHTS profiling for inhibitors of Plasmodium falciparum proliferation (AID 504749);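 further: 0% = DMSO vehicle and full inhibition = artemisinin control; nearly all actives have a fitted effect of over 60% in size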
test parameters: P. falciparum in erythrocytes, SYBR Green DNA, 72 h; at 28.7 µM (top of the series); parasite line B
Inconclusive results are not listed.
Write the value in % as a bare number.

The cases that follow already have their activity, negative = inhibition on record.
If you can, please state the reported activity, negative = inhibition value of COC1=C(OC)C(=O)C(C/C=C(\C)CC/C=C(\C)CC/C=C(\C)CC/C=C(\C)CC/C=C(\C)CC/C=C(\C)CC/C=C(\C)CC/C=C(\C)CC/C=C(\C)CCC=C(C)C)=C(C)C1=O .
5.89

If you can, please state the reported activity, negative = inhibition value of COC(=O)CCC[N+](C)(C)C .
3.25

If you can, please state the reported activity, negative = inhibition value of C[Se]CC[C@H](N)C(=O)O .
13.1

Next:
If you can, please state the reported activity, negative = inhibition value of CCCCC[C@H](O)/C=C/[C@H]1[C@H](O)CC(=O)[C@@H]1C/C=C\CCCC(=O)O .
0.0897

If you can, please state the reported activity, negative = inhibition value of CCCCO .
16.3

If you can, please state the reported activity, negative = inhibition value of CCN(CC)CCOc1ccc2nc(N(C)C)sc2c1 .
4.31

If you can, please state the reported activity, negative = inhibition value of COc1ccc2nc(NC(=O)Nc3ccccc3)sc2c1 .
5.72

###

protocol notes: Cell Viability - SK-N-SH (AID 435);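 further: compound exposure lasted 40 h at 37 °C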
test parameters: SK-N-SH neuroblastoma cell viability qHTS
Excerpt: NIH Chemical Genomics Center [NCGC] NIH Molecular Libraries Screening Centers Network [MLSCN] National Institutes of Environmental Health Sciences [NIEHS] National Toxicology Program [NTP] We have developed a 1536-well cell-based assay for quantitative high throughput screening (qHTS) against a number of cell lines to determine in vitro cytotoxicity of small molecules. […] 8. Detection; Luminescence; Viewlux plate reader […]
Records with an inconclusive call do not appear. The source made the active and inactive calls. Calls follow the shape of the full dose curve.
Entry note: the call must match one of TRUE (active), FALSE (inactive)

What call does the record list for COC(=O)c1ccccc1O ?
FALSE

What call does the record list for O=P(O)(O)O ?
FALSE

What call does the record list for C[C@H](CCC(=O)O)[C@H]1CC[C@H]2[C@@H]3CC[C@@H]4C[C@H](O)CC[C@]4(C)[C@H]3C[C@H](O)[C@]12C ?
FALSE

What call does the record list for C[C@H]1O[C@@H](O[C@H]2[C@@H](O)C[C@H](O[C@H]3[C@@H](O)C[C@H](O[C@H]4CC[C@@]5(C)[C@H](CC[C@@H]6[C@@H]5C[C@@H](O)[C@]5(C)[C@@H](C7=CC(=O)OC7)CC[C@]65O)C4)O[C@@H]3C)O[C@@H]2C)C[C@H](O)[C@@H]1O ?
TRUE

What call does the record list for Nc1nccs1 ?
FALSE

What call does the record list for C=C1C(CCl)(CCl)C2(Cl)C(Cl)C(Cl)C1(Cl)C2(Cl)Cl (stereo not drawn) ?
TRUE

Next:
What call does the record list for CC/C=C\C/C=C\C/C=C\CCCCCCCC(=O)O ?
FALSE

What call does the record list for CC1=CC(=O)NS(=O)(=O)O1 ?
FALSE

What call does the record list for CCCCO ?
FALSE

What call does the record list for Nc1ncnc2c1ncn2[C@H]1CC[C@@H](CO)O1 ?
FALSE

What call does the record list for O.O.O.O.O.O.O.O=S(=O)([O-])[O-].[Co+2] ?
FALSE

What call does the record list for Nc1ccc(N=Nc2ccccc2)c(N)n1 ?
FALSE

What call does the record list for Cc1ncc[nH]1 ?
FALSE
